testedTarget: Nuclear factor erythroid 2-related factor 2 (Homo sapiens)
experimentSummary: Agonist activity at Nrf2 (unknown origin) at 20 uM by dual-luciferase reporter gene assay
experimentalContext: filed as agonist
reportedEndpoint: fold change (FC)

smilesStructure | testedTarget | fold change (FC)
COc1cccc(-c2cc3cc(Br)c4c(c3oc2=O)CCC(C)(C)O4)c1 | Nuclear factor erythroid 2-related factor 2 (Homo sapiens) | 1.41
COc1ccc2c(CC(=O)Oc3ccc4ccc(=O)oc4c3CC=C(C)C)c[nH]c2c1 | Nuclear factor erythroid 2-related factor 2 (Homo sapiens) | 1.51
COc1ccc2[nH]cc(CC(=O)Oc3ccc4ccc(=O)oc4c3CC=C(C)C)c2c1 | Nuclear factor erythroid 2-related factor 2 (Homo sapiens) | 1.59
COc1ccc2ccc(=O)oc2c1CC=C(C)C | Nuclear factor erythroid 2-related factor 2 (Homo sapiens) | 1.18
